log10(IC50) for assorted compounds
target: KRasG12C (M1-K169, biotinylated on the N-terminus) (Homo sapiens (Human), UniProt P01116, G12C)
assay_summary: Covalent competition assay: scintillation proximity assay (SPA) quantifying covalent modification of KRASG12C
assay_context: competition with radiolabeled covalent probe (Compound B/Compound A), 2 hours incubation, 10 nM KRasG12C
Record value = log10 of IC50 given in nM.

The following compounds have reported results that may help.
C=CC(=O)N1CC2(CC(n3nc(N4CC[C@@H](CN5CCN(C6COC6)C6COCC65)CC4(C)C)c(-c4c(Cl)c(Cl)cc5[nH]ncc45)c3C)C2)C1 (single isomer, unassigned) [Example 280b]
0.85
C=CC(=O)N1CC2(CC(n3nc(N4CCN(CC(C)(C)O)CC45CCC5)c(-c4c(Cl)c(C)cc5[nH]nc(N)c45)c3C)C2)C1 (single isomer, unassigned) [Example 117a]
0.95
C=CC(=O)N1CC2(CC(n3nc(N4CC[C@@H](CN5CCOCC5)CC4(C)C)c(-c4c(Cl)c(Cl)cc5[nH]nc(N)c45)c3C)C2)C1 (single isomer, unassigned) [Example 241b]
2.73
C=CC(=O)N1CC2(CC(n3nc(N4CCC(C)(O)CC4(C)C)c(-c4c(Cl)c(C)cc5[nH]ncc45)c3C)C2)C1 (single isomer, unassigned) [Example 27b]
1.38

# query: log10(IC50) of entry C=CC(=O)N1CC2(CC(n3nc(N4CCN(C(C)=O)CC4)c(-c4c(Cl)ccc5[nH]ncc45)c3C)C2)C1 (single isomer, unassigned) [Example 36b]
3.38

# query: log10(IC50) of entry C=CC(=O)N1CC2(CC(n3nc(N4CC[C@@H](CN5CC6(CCN(C7COC7)C6)C5)CC4(C)C)c(-c4c(Cl)c(Cl)cc5[nH]ncc45)c3C)C2)C1 (single isomer, unassigned) [Example 267b]
0.85

# query: log10(IC50) of entry C/C=C/C(=O)N1CC2(CC(n3nc(N4CCN(C5COC5)CC45CCC5)c(-c4c(Cl)c(C)cc5[nH]ncc45)c3C)C2)C1 (single isomer, unassigned) [Example 138b]
3.44

# query: log10(IC50) of entry C=CC(=O)N1CC2(CC(n3nc(N4CCN(C[C@@H]5COCCO5)CC45CCC5)c(-c4c(Cl)c(C)cc5[nH]ncc45)c3C)C2)C1 (single isomer, unassigned) [Example 169b]
1.08

# query: log10(IC50) of entry C=CC(=O)N1CC2(CC(n3nc(N4CCN(C5CCOCC5)C[C@]4(C)COC)c(-c4c(Cl)c(C)cc5[nH]nc(N)c45)c3C)C2)C1 (single isomer, unassigned) [Example 90a]
1.36

# query: log10(IC50) of entry C=CC(=O)N1CC2(CC(n3nc(N4CCC(n5ccnc5)CC4(C)C)c(-c4c(Cl)c(C)cc5[nH]ncc45)c3C)C2)C1 (single isomer, unassigned) [Example 45b]
3.18

# query: log10(IC50) of entry C=CC(=O)N1CC2(CC(n3nc(N4CCN(C(=O)COC)CC45CCC5)c(-c4c(Cl)c(C)cc5[nH]ncc45)c3C)C2)C1 (single isomer, unassigned) [Example 123b]
1.32

# query: log10(IC50) of entry C=CC(=O)N1CC2(CC(n3nc(N4CCN(C(COC)COC)C[C@]4(C)CC)c(-c4c(Cl)c(C)cc5[nH]ncc45)c3C)C2)C1 (single isomer, unassigned) [Example 187a]
3.62
